system: rat thrombocytes; test: Inhibition of the collagen-induced aggregation of rat thrombocytes ex vivo; format: in vivo, rat (male Sprague-Dawley); conditions: Rattus norvegicus; rats, oral administration; dose which inhibits the collagen-induced aggregation by 33%; read-out: Inhibition of thrombocyte aggregation, ED 33%
Kindly state ED (33%) for each of the entries shown.
Lab book: enter the figure in mg/kg, no units written.

Input: Provide the documented ED (33%) with rat thrombocytes as the system for O=C(Nc1ccc(C2=NNC(=O)C3CC23)cc1)C1CC1 (stereo not shown) [Example 13, hemihydrate]
Output: 2.5

Input: What is its ED (33%) for rat thrombocytes? Entry: CCC(=O)Nc1ccc(C2=NNC(=O)C3CC23)cc1 (stereo not shown)
Output: 1.48

Input: What is its ED (33%) for rat thrombocytes? Entry: CC(Cl)C(=O)Nc1ccc(C2=NNC(=O)C3CC23)cc1 (stereo not shown)
Output: 3.74

Input: Provide value of ED (33%) for this record tested with rat thrombocytes: CC(=O)Nc1ccc(C2=NNC(=O)C3CC23)cc1 (stereo not shown)
Output: 30.7

###

For each record, write down the corresponding log10 ED (20%).
test system: narcotized rats; test: Anti-hypertensive effect on narcotized rats; type: in vivo, rat (male Sprague-Dawley); conditions: Rattus norvegicus, ip; rats under urethane narcosis; intraperitoneal; dose which lowers the blood pressure by 20%; read-out: Reduction in blood pressure, ED 20%
The figures below represent log10 of ED (20%), where ED (20%) is stated in mg/kg.

Input: Test system narcotized rats; read-out log10 ED (20%); what value for CC(Cl)C(=O)Nc1ccc(C2=NNC(=O)C3CC23)cc1 (stereo not shown) ?
Output: -0.56

Input: Field: log10 ED (20%) (narcotized rats). Entry: CCC(=O)Nc1ccc(C2=NNC(=O)C3CC23)cc1 (stereo not shown)
Output: -0.87

Input: Short answer please: log10 ED (20%), narcotized rats, entry O=C(CCl)Nc1ccc(C2=NNC(=O)C3CC23)cc1 (stereo not shown)
Output: -0.52

Input: Record CCC(C)C(=O)Nc1ccc(C2=NNC(=O)C3CC23)cc1 (stereo not shown) : what is its log10 ED (20%) with narcotized rats?
Output: -0.05

Input: Fill in the recorded log10 ED (20%) for this compound, with narcotized rats as test system: C/C=C/C(=O)Nc1ccc(C2=NNC(=O)C3CC23)cc1 (stereo not shown)
Output: 0.23

Input: # returns recorded log10 ED (20%) (system: narcotized rats) for CC1(C(=O)Nc2ccc(C3=NNC(=O)C4CC34)cc2)CC1(Cl)Cl (stereo not shown)
Output: -0.10

Input: Field: log10 ED (20%) (narcotized rats). Entry: CC(C)(CBr)C(=O)Nc1ccc(C2=NNC(=O)C3CC23)cc1 (stereo not shown)
Output: 0.47

Input: Identify the measured log10 ED (20%) of CC(Cl)(Cl)C(=O)Nc1ccc(C2=NNC(=O)C3CC23)cc1 (stereo not shown) for narcotized rats.
Output: 1.00

Input: // fetch narcotized rats log10 ED (20%) for O=CNc1ccc(C2=NNC(=O)C3CC23)cc1 (stereo not shown)
Output: -0.60

Input: Form: Entry = NNc1nnc(NN)c2ccccc12 [Dihydralazine, reference compound] | System = narcotized rats | log10 ED (20%) = ____
Output: -0.47

Input: Provide the documented log10 ED (20%) with narcotized rats as the system for O=C(Nc1ccc(C2=NNC(=O)C3CC23)cc1)C(Cl)Cl (stereo not shown)
Output: 0.18

Input: Find the measured log10 ED (20%): item CC(=O)Nc1ccc(C2=NNC(=O)C3CC23)cc1 (stereo not shown) , target or system narcotized rats.
Output: -0.71

Input: Short answer please: log10 ED (20%), narcotized rats, entry CC(C)C(=O)Nc1ccc(C2=NNC(=O)C3CC23)cc1 (stereo not shown)
Output: -0.40

Input: Please provide the recorded log10 ED (20%) for O=C(Nc1ccc(C2=NNC(=O)C3CC23)cc1)C1CCC1 (stereo not shown) , tested on narcotized rats.
Output: -0.40

Input: GET /values?readout=log10 ED (20%)&system=narcotized rats&item= O=C(CCCCl)Nc1ccc(C2=NNC(=O)C3CC23)cc1 (stereo not shown)
Output: 0.83

Input: Item O=C(Nc1ccc(C2=NNC(=O)C3CC23)cc1)C1CCCCC1 (stereo not shown) with narcotized rats - log10 ED (20%)?
Output: -0.38

Input: Which log10 ED (20%) is reported with narcotized rats for this entry: O=C(CCCl)Nc1ccc(C2=NNC(=O)C3CC23)cc1 (stereo not shown) ?
Output: -0.16

Input: Identify the measured log10 ED (20%) of C=CC(=O)Nc1ccc(C2=NNC(=O)C3CC23)cc1 (stereo not shown) for narcotized rats.
Output: -0.53

Input: Item: CCCC(=O)Nc1ccc(C2=NNC(=O)C3CC23)cc1 (stereo not shown) Test system: narcotized rats Read-out: log10 ED (20%) Value: ?
Output: 0.27

Input: narcotized rats / log10 ED (20%) / O=C(Nc1ccc(C2=NNC(=O)C3CC23)cc1)C1CC1 (stereo not shown) [Example 13, hemihydrate] : value?
Output: -1.33

Input: Item CC1CC1C(=O)Nc1ccc(C2=NNC(=O)C3CC23)cc1 (stereo not shown) with narcotized rats - log10 ED (20%)?
Output: -0.19
